Field: growth. Provide a value for each of the compounds that follow.
test system: SF-539 CNS; assay: NCI-60 one-dose screen, 48 h (100 = growth as untreated, 0 = no growth, -100 = all killed); details: 10 µM
About 83,000 compounds went through this panel and 20% of them were active in at least one assay; those are over-represented in the sample as a whole. Activity calls are given as the source filed them. How the source made its calls: active means growth percent below 10; inactive means the rest.

COc1cc(C2CC(=O)Nc3c2c(C)nn3-c2nc3ccccc3[nH]2)cc(OC)c1O (stereo not drawn) :: 72.8% (inactive)
COc1ccc2nc(/C=C/c3ccc(N(C)C)cc3)sc2c1 :: 103% (inactive)
CCOC(=O)c1c(Cl)c2c(n1Cc1cccc(OC)c1)-c1oncc1CC2 :: 5.6% (active)
Oc1cc(O)c(Br)cc1Br :: 96.4% (inactive)
O=C(NNC(=O)c1ccncc1)Nc1ccc([N+](=O)[O-])cc1 :: 94% (inactive)
O=C(Cn1ccc(=O)[nH]c1=O)c1ccc([N+](=O)[O-])o1 :: 106% (inactive)
CCCCn1c(=O)[nH]c(N)c(C(c2ccc(Cl)cc2)c2c(N)[nH]c(=O)n(CCCC)c2=O)c1=O :: 43.9% (inactive)
Cc1c(C(=O)N[C@H](CO)Cc2ccccc2)[nH]c2ccc(Cl)cc2c1=O :: 98.9% (inactive)

Value sought for every listed compound: growth.
1. COC(=O)[C@]12CC[C@@H](C)[C@H](C)[C@@H]1C1=CC[C@@H]3[C@@]4(C)C/C(=N\O)[C@H](O)[C@@]5(C)COC(=C45)C[C@@]3(C)[C@]1(C)CC2
2. Oc1ccc(/C=N\Nc2ccccn2)c(O)c1
3. CCCCCCCCCCSC(=N)N (tested in a mixture with another compound)
4. CCOC(=O)C(CCC1=NC(C)(C)CC(C)O1)C(=O)OCC (stereo not drawn)
5. C=CCNC(=S)NN

-75.2% (active)
-0.82% (active)
83.4% (inactive)
102% (inactive)
95.1% (inactive)
